- System name: Calmodulin-1 (Homo sapiens)
- Procedure text: calcium-bound CALM1 binders on microarrays, profiling panel, artefact control for SMM control-protein annotation, biochemical, small-molecule microarray, Cy5-labelled CALM1, plus calcium (AID 1112);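 note: score merges spot fluorescence with signal to noise from triplicate slides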
- Condition label: Cy5-CALM1 binding fluorescence, higher = more signal
So I've got a bunch of molecules here, and I need their composite z-score values.

The recorded composite z-score for entry `CCN1C(C)=C(C(=O)OC)[C@@H](c2ccccc2)N2C(=O)[C@@]3(C(=O)OC)O[C@@]12[C@@H]1C(=O)N(C)C(=O)[C@@H]13` equals -0.686

The recorded composite z-score for entry `COC(=O)C[C@H]1O[C@]2(C(=O)N(Cc3ccccc3)c3ccc(I)cc32)[C@@H](C)[C@@H]1[Si](C)(C)c1ccc(OC)cc1` equals 0.286

The recorded composite z-score for entry `C=C(/C(=C/C[C@@H](OC(=O)c1ccncc1)c1ccc(CO)o1)c1cnc2ccccc2c1)C(C)C` equals -0.116

The recorded composite z-score for entry COC(=O)C1=CC(c2ccc(CO)cc2)=CC(C2CC2)N(Cc2sc3ccccc3c2Cl)C=C1C(=O)OC (stereo unspecified) equals 0.975

The recorded composite z-score for entry `O=C1C[C@@](C(=O)NCCN2CCOCC2)(c2ccc([N+](=O)[O-])cc2)[C@@H](c2ccc(CO)cc2)N1C1CCCCC1` equals -0.142

The recorded composite z-score for entry `C#C[C@H](O[Si](C#Cc1ccccc1)(C(C)C)C(C)C)c1ccccc1` equals 0.418

The recorded composite z-score for entry CC(C)N1CC=CC23O[C@@H]4/C=C\CCCOC(=O)C4[C@H]2C(=O)N(CCO)[C@@H]3C1=O (stereo partly specified) equals -0.793

The recorded composite z-score for entry `C[C@@H]1C=CCC(=O)OC[C@H]2O[C@@H](C=C[C@@H]2O)[C@H](C)C=CCC(=O)OC[C@H]2O[C@H]1C=C[C@@H]2O` equals -2.23

The recorded composite z-score for entry `CCCNC(=O)[C@@H]1c2ccccc2C(=O)N(C2CCCCC2)[C@H]1c1ccc(CO)cc1` equals -0.616

The recorded composite z-score for entry `COCCOC(=O)N1C(=O)[C@@]2(c3cc(C#CCCO)ccc31)[C@H](C(=O)N1CCCCCCC1)[C@H]1C(=O)O[C@H](c3ccccc3)[C@H](c3ccccc3)N1[C@@H]2c1ccc(O)cc1` equals 0.719

The recorded composite z-score for entry `C=CCN1C(=O)[C@@]2(O[C@@H](CCn3cc([C@H](O)c4ccccc4)nn3)[C@H]([Si](C)(C)c3ccc(OC)cc3)[C@H]2C)c2cc(N3CCOC3=O)ccc21` equals 0.462

The recorded composite z-score for entry `C=CCNC(=O)[C@@H]1[C@H]2C(=O)O[C@H](c3ccccc3)[C@H](c3ccccc3)N2[C@H](c2ccc(OCCO)cc2)[C@@]12C(=O)N(C(=O)OCCOC)c1ccc(C#CC3(O)CCCCCC3)cc12` equals 1.11

The recorded composite z-score for entry `[N-]=[N+]=NCc1ccccc1C[C@@]1(C(=O)N2CCOCC2)N=C(c2ccc(OCCCO)cc2)O[C@@H]1c1ccccc1N=[N+]=[N-]` equals 1.13

The recorded composite z-score for entry `CCOC(=O)C[C@H]1[C@H](OC(=O)c2cc3ccccc3oc2=O)[C@@H](NC(=O)C2CCCCC2)c2cc(OCCCO)ccc2N1C(=O)c1ccc2ccccc2n1` equals -0.137

The recorded composite z-score for entry `NC(=O)NCC#Cc1ccc2c(c1)[C@]1(C(=O)N2)[C@H](C(N)=O)[C@H]2C(=O)O[C@H](c3ccccc3)[C@H](c3ccccc3)N2[C@@H]1c1ccccc1OCCO` equals 0.356

The recorded composite z-score for entry `NC(=O)NCC#Cc1ccc2c(c1)[C@]1(C(=O)N2)[C@H](C(=O)N2CCCCCCC2)[C@H]2C(=O)O[C@H](c3ccccc3)[C@H](c3ccccc3)N2[C@@H]1c1ccccc1OCCO` equals 1.69

###

So I've got a bunch of compounds here, and I need their composite z-score values.
- Procedure text: small-molecule binders of probe aNOTCH3, primary screen, biochemical, small-molecule microarray, 635/667 nm fluorescence (AID 1120);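 note: probe is a biotin-tagged antibody raised against NOTCH3 rather than NOTCH3 protein; score merges spot fluorescence near 667 nm with spot signal to noise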
- Condition label: higher = more signal
Provide a numeric answer; units are not to be included.

The recorded composite z-score for entry `CSCC[C@@H]1NC(=O)CC=C[C@@H](C)COC(=O)[C@H](CCSC)NC(=O)CC=C[C@@H](C)COC1=O` equals -0.205

The recorded composite z-score for entry `O=C1O[C@H](c2ccccc2)[C@H](c2ccccc2)N2[C@H]1[C@@H](C(=O)NC[C@H](O)c1ccccc1)[C@]1(C(=O)Nc3ccc(C#CC4=CCCCC4)cc31)[C@H]2c1ccc(OCCO)cc1` equals 0.141

The recorded composite z-score for entry `COCCCNC(=O)[C@@H]1c2ccccc2C(=O)N(CC23CC4CC(CC(C4)C2)C3)[C@H]1c1ccc(CO)cc1` equals 0.28

###

- Tested on: Human papillomavirus type 1a protein E7 (residues 44-93)
- Procedure text: HPV1a E7 fragment binders on microarrays, primary screen, biochemical, small-molecule microarray, residues 44-93, 635 nm fluorescence (AID 1108);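 note: E7 fragment applied at 1 µg/mL in TBST for 1 h at 4 C; score combines spot fluorescence with its signal to noise ratio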
- Condition label: small-molecule microarray binding, fluorescence 635 nm; higher = more signal
Metric: composite z-score
Provide a numeric answer; units are not to be included.

Form field, composite z-score with Human papillomavirus type 1a protein E7 (residues 44-93), item `C=CCN1C(=O)[C@]2(O[C@H](CCn3cc(CCO)nn3)[C@@H]([Si](C)(C)c3ccc(OC)cc3)[C@@H]2C)c2cc(NC(=O)c3ccc(OC)cc3)ccc21` : 1.09

Form field, composite z-score with Human papillomavirus type 1a protein E7 (residues 44-93), item `O=C1C[C@@](C(=O)NCCN2CCOCC2)(c2ccc([N+](=O)[O-])cc2)[C@@H](c2ccc(CO)cc2)N1C1CCCCC1` : 1.39

Form field, composite z-score with Human papillomavirus type 1a protein E7 (residues 44-93), item `COc1ccc([C@H]2C[C@H]3C(Br)=C[C@]2(OC)C(=O)[C@]32CO2)cc1` : -0.681

Form field, composite z-score with Human papillomavirus type 1a protein E7 (residues 44-93), item COC(=O)C1=CC(c2ccc(CO)cc2)=CC(c2cccs2)N(Cc2cccc(OC(F)(F)F)c2)C=C1C(=O)OC (stereo unspecified) : 0.532

Form field, composite z-score with Human papillomavirus type 1a protein E7 (residues 44-93), item `CC(=O)NCCCC[C@@H]1NC(=O)[C@@H]2C[C@H](C(=O)NCCCCCNC(=O)CS)[C@H](c3ccc(O)cc3)N2C1=O` : 0.364

Form field, composite z-score with Human papillomavirus type 1a protein E7 (residues 44-93), item `COCCOC(=O)N1C(=O)[C@@]2(c3cc(C#CC4=CCCCC4)ccc31)[C@H](c1ccc(O)cc1)N1[C@H](c3ccccc3)[C@H](c3ccccc3)OC(=O)[C@H]1[C@@H]2C(=O)N1CCCCCCC1` : 1.29

Form field, composite z-score with Human papillomavirus type 1a protein E7 (residues 44-93), item `C=C(CCCC)C(=O)CC[C@@H](OC(=O)c1cccnc1)c1cccc(OCCO)c1` : -0.0891

Form field, composite z-score with Human papillomavirus type 1a protein E7 (residues 44-93), item `CCc1cccc(NC(=O)O[C@H]2[C@H](OC(=O)Nc3ccccc3)[C@@H](OC(=O)Nc3ccccc3)[C@@H](OC)O[C@@H]2CO)c1` : 1.51

Form field, composite z-score with Human papillomavirus type 1a protein E7 (residues 44-93), item O=C1C2C=CC(C(O)C#Cc3ccccc3)N(Nc3ccccc3)C2C(=O)N1c1ccccc1 (stereo unspecified) : -0.369

Form field, composite z-score with Human papillomavirus type 1a protein E7 (residues 44-93), item `COCCOC(=O)N1C(=O)[C@@]2(c3ccccc31)[C@H](C(=O)N1CCc3cc(OC)c(OC)cc3C1)[C@H]1C(=O)O[C@H](c3ccccc3)[C@H](c3ccccc3)N1[C@@H]2c1ccccc1OCCO` : 0.583

Form field, composite z-score with Human papillomavirus type 1a protein E7 (residues 44-93), item `O=C(O)[C@@H]1Cc2c([nH]c3ccccc23)[C@@H](c2ccccc2)N1` : 0.681

Form field, composite z-score with Human papillomavirus type 1a protein E7 (residues 44-93), item `O=C/C=C/c1ccc(/C=C/c2ccccc2)cc1` : -1.48

Form field, composite z-score with Human papillomavirus type 1a protein E7 (residues 44-93), item `CC(C)NC(=O)[C@@]1(Cc2ccccc2I)c2ccccc2C(=O)N(C2CCCCC2)[C@H]1c1ccc(CO)cc1` : 1.46

Form field, composite z-score with Human papillomavirus type 1a protein E7 (residues 44-93), item C[C@H]1C2[C@H](Cc3ccccc3)NC(=O)[C@]23C(=O)N[C@H](Cc2ccccc2)C(=O)N[C@@H](Cc2ccccc2)C(=O)NC/C=C\C/C=C/C3[C@@H]2O[C@]12C (stereo partly specified) : -0.767

Form field, composite z-score with Human papillomavirus type 1a protein E7 (residues 44-93), item `CC(C)CN1C(=O)[C@@]2(Cc3ccccc31)c1ccccc1C(=O)N(C1CCCCC1)[C@H]2c1ccc(CO)cc1` : -0.973

Form field, composite z-score with Human papillomavirus type 1a protein E7 (residues 44-93), item `Cc1ccc(S[C@]2(C(=O)O)CC(=O)N(Cc3cc(C(F)(F)F)cc(C(F)(F)F)c3)[C@@H]2c2ccc(CO)cc2I)cc1` : -0.0997

Form field, composite z-score with Human papillomavirus type 1a protein E7 (residues 44-93), item `COC(=O)[C@@]1(Cc2ccccc2N=[N+]=[N-])N=C(c2ccc(OCCCO)cc2)O[C@H]1c1ccccc1CN=[N+]=[N-]` : 0.403

Form field, composite z-score with Human papillomavirus type 1a protein E7 (residues 44-93), item `COCC(=C=CC[C@H](O)c1ccc(OCCO)cc1)C[C@H](O)c1ccccn1` : 0.131

Form field, composite z-score with Human papillomavirus type 1a protein E7 (residues 44-93), item `O=C1O[C@H](c2ccccc2)[C@H](c2ccccc2)N2[C@H]1[C@@H](C(=O)Nc1nc3ccccc3s1)[C@]1(C(=O)Nc3ccc(C#CC4(O)CCCCCC4)cc31)[C@H]2c1ccc(O)cc1` : 1.38

Form field, composite z-score with Human papillomavirus type 1a protein E7 (residues 44-93), item `COc1ccc([Si](C)(C)[C@H]2[C@H](CCO)O[C@@]3(C(=O)N(Cc4ccccc4)c4ccc(N5C(=O)c6cccc7cccc5c67)cc43)[C@@H]2C)cc1` : -0.137

Form field, composite z-score with Human papillomavirus type 1a protein E7 (residues 44-93), item `CCCCO[C@H]1C[C@H]2C(Br)=C[C@@]1(CO)C(=O)[C@]21CO1` : -0.122

Form field, composite z-score with Human papillomavirus type 1a protein E7 (residues 44-93), item C=CCC(OC(C)=O)[C@@H]1[C@@H](N(Cc2cccc3ccccc23)C(=O)Cc2ccc(F)cc2)c2cc(OCCCO)ccc2N1C(=O)Cc1ccc2ccccc2c1 (stereo partly specified) : -0.28

Form field, composite z-score with Human papillomavirus type 1a protein E7 (residues 44-93), item `O=C1O[C@H](c2ccccc2)[C@H](c2ccccc2)N2[C@H]1[C@@H](C(=O)Nc1nc3ccccc3s1)[C@]1(C(=O)Nc3ccc(C#CC4=CCCCC4)cc31)[C@H]2c1ccccc1OCCO` : 1.35

Form field, composite z-score with Human papillomavirus type 1a protein E7 (residues 44-93), item `C=CC[C@@]1(C(=O)N2CCOCC2)N=C(c2ccc(OCCCO)cc2)O[C@@H]1c1ccccc1` : 0.0433

Form field, composite z-score with Human papillomavirus type 1a protein E7 (residues 44-93), item `O=C1c2ccccc2[C@](Cc2ccccc2I)(C(=O)NCC(F)(F)F)[C@H](c2ccc(CO)cc2)N1Cc1ccccc1C(F)(F)F` : 0.517

Form field, composite z-score with Human papillomavirus type 1a protein E7 (residues 44-93), item `C=CC[C@]1(C(=O)N2CCCCC2)N=C(c2ccc(OCCCO)cc2)O[C@H]1c1ccccc1N=[N+]=[N-]` : 0.796

Where do these numbers come from? They come from PubChem BioAssay.
